- target_of_assay: DGKζ (Homo sapiens (Human), UniProt Q13574)
- Sequence (Q13574 other isoform, or with tags, fused parts or gaps): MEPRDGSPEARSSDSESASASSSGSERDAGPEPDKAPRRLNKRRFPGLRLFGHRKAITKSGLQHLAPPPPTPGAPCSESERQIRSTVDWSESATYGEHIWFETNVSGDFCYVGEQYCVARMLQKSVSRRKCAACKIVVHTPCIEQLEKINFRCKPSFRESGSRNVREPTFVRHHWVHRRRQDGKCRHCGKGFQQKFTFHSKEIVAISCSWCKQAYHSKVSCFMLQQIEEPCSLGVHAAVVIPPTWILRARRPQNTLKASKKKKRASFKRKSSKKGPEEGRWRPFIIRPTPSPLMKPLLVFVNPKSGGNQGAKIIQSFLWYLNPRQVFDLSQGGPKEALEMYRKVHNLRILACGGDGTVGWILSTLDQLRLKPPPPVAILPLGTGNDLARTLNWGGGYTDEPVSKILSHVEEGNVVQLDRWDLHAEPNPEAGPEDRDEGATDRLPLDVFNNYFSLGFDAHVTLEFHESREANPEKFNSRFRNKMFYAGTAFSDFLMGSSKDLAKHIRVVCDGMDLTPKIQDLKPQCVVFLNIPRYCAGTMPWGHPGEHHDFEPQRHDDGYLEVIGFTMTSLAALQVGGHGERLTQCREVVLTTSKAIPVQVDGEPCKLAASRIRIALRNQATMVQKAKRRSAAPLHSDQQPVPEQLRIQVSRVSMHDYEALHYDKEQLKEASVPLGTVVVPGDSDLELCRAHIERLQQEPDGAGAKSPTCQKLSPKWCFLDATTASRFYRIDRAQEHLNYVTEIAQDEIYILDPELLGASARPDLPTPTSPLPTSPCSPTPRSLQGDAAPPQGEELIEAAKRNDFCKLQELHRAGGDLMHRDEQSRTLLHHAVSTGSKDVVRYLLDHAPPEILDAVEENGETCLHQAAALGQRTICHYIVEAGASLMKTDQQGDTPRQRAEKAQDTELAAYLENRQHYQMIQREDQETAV
observable: IC50 (µM)

{"columns": ["compound", "IC50, µM"],
 "data": [
  ["CC[C@H]1CN(C(C)c2ccc3cc(C(F)F)sc3n2)[C@H](CC)CN1c1nc(=O)n(C)c2cn(CC#N)nc12 (single isomer, unassigned) [Compound A148a]", 2.31]
]}

[P] CC[C@H]1CN(C(C)c2ccc3nc(C)cn3n2)[C@H](CC)CN1c1cc(=O)n(C)c2cn(CC#N)nc12 (single isomer, unassigned) [Compound A149a]
[Q] CC[C@H]1CN(C(C)c2ccc3ncsc3n2)[C@H](CC)CN1c1cc(=O)n(C)c2cn(CC#N)nc12 (single isomer, unassigned) [Compound A99b]
Data request: Which value of IC50 is greater, the one for P or the one for Q ? Let me know the label of the one you choose.
Data returned: P
